Cited source: patent US20250250357A1

# SYSTEM: T1, monkey MSLN full-length protein (NCBI: XP_028696439.1) expressed on HEK293T-monkey MSLN cells (monkey)
# T1 construct: Whole encoded precursor
# T1 chain: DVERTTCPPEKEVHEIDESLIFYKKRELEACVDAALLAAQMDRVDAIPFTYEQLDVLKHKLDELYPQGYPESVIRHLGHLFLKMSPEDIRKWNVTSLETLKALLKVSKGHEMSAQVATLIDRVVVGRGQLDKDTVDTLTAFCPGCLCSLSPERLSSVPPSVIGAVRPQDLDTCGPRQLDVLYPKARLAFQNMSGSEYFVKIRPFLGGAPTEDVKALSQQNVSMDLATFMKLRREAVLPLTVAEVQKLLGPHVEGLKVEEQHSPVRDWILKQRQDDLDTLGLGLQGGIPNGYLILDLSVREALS
# PROCEDURE_SUMMARY: FACS on HEK293T-monkey MSLN cells;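 also: flow cytometry binding of chimeric antibodies to the cells, with a 2 h incubation on ice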
OBSERVED_PROPERTY: pEC50
# pEC50 = -log10(concentration in molar units)

[Q] What pEC50 value was documented for this binder, S009-F7.65.13 (antibody, human IgG1, kappa, V domains shown, human-murine chimeric antibody, human IgG1/kappa constant regions) VH: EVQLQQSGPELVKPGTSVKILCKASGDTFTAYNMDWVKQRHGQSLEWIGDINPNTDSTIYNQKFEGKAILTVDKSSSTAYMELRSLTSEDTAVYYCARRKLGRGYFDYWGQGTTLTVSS VL: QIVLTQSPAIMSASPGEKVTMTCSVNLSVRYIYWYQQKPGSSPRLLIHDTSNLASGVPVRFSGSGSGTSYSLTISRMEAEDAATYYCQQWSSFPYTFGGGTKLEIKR ?
[A] 9.06

[Q] What pEC50 value was documented for this binder, S009-F7.11.11 (antibody, human IgG1, kappa, V domains shown, human-murine chimeric antibody, human IgG1/kappa constant regions) VH: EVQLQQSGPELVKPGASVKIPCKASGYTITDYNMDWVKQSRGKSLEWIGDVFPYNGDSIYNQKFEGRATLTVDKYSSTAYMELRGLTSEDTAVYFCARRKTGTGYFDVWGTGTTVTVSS VL: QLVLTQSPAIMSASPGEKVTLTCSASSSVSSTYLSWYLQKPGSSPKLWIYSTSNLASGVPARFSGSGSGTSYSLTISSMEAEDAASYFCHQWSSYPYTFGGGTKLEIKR ?
[A] 9.39

[Q] What pEC50 value was documented for this binder, S009-F7.33.24 (antibody, human IgG1, kappa, V domains shown, human-murine chimeric antibody, human IgG1/kappa constant regions) VH: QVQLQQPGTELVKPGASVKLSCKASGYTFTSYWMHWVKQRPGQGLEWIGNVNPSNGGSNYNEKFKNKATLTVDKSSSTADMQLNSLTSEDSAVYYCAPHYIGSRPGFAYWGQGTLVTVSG VL: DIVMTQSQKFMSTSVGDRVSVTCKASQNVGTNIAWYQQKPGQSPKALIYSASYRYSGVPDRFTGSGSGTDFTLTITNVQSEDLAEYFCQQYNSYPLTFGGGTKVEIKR ?
[A] 9.89
